# Test system: MS2 coat protein
# measurement_protocol: apparent KD of MS2 coat protein; designed switch direction (-1 OFF switch, 1 ON switch): -1; higher = weaker reporter binding
# stated_conditions: input ligand: FMN 200 uM
apparent KD of MS2 coat protein listing for selected sequences.
Entry rule: numbers only, all in nM.

{"ordered_residues": "UGUUGUCGCGUAGGAUAUGAGGAUCACCCAUAUAGAGGAUAUGAAAAGAAGGCUCUGAGGAUUACCCAGAAGGACGGGACAACU [pwkr exNG2 2xF5 2xFMN.22] (Eterna round: R96, puzzle: Exclusion NG 2)", "apparent KD of MS2 coat protein [nM]": 1180}

### Prompt Could you please provide reported apparent KD of MS2 coat protein for AUAAAUCAUGUAGGAUAUGCGUGGCGAAGCUAUGCAGAAGGACAUGAGGAUCACCCAUGUGCUUCCGUCUGCGUACAGACGGAA [Mat - Exclusion NG 1 - Mod of JL - D35] (Eterna round: R96, puzzle: Exclusion NG 1) ? Thanks!
### Response 64.8

----------
apparent KD of MS2 coat protein listing for selected sequences.
# Test system: MS2 coat protein
# measurement_protocol: apparent KD of MS2 coat protein; designed switch direction (-1 OFF switch, 1 ON switch): 1; higher = weaker reporter binding
# stated_conditions: input ligand: microRNA oligo, concentration not stated

Check out these entries, answers already filled in.
{"ordered_residues": "GGAGCCAAGGCAGGAUAUUCAUAUUAAUUACAUGAGGAUCACCCAUGUUAGGCCAGAAGGCCUUGGGAGAAGGGCCAUGGCUCG [Xeonanis - 13 mod19] (Eterna round: R96, puzzle: Same State NG 2)", "study_system": "MS2 coat protein", "apparent KD of MS2 coat protein": "47.2 nM"}
{"ordered_residues": "AGAUCAUGACGAGGAUAUGCCACAUGAGGAUCACCCAUGUAUGUGGUAGGACGCGUACGUCCAAAGCAGAAGGCGUCGUGAUCA [Mat - Same State NG 2 - JL mod - D36] (Eterna round: R96, puzzle: Same State NG 2)", "study_system": "MS2 coat protein", "apparent KD of MS2 coat protein": "37.6 nM"}
{"ordered_residues": "GCUAGGAAAGAAGCCAACAUGAGGAUCACCCAUGUAUGUUGGUAGGAUAUCGUAUGCAAAGCAUACGAGAAGGGCUAACCUAGC [Mat - Same State NG 3 - JL Mod - D74] (Eterna round: R96, puzzle: Same State NG 3)", "study_system": "MS2 coat protein", "apparent KD of MS2 coat protein": "127 nM"}

### Prompt Provide apparent KD of MS2 coat protein, system MS2 coat protein, entry ACAUGAGAGUGAGGAUAUGCUGUACCUACAUGUGACAUGAGGAUCACCCAUGUGGUAAGUAUGACGCAGAAGGCACAGAUAUGU [Equivalance 78 - Jieux - Same State NG 2] (Eterna round: R96, puzzle: Same State NG 2)
### Response 78.9 nM

----------
apparent KD of MS2 coat protein listing for selected sequences.
# System: MS2 coat protein
# measurement_protocol: apparent KD of MS2 coat protein; higher = weaker reporter binding
# stated_conditions: Eterna round: R107; input ligand: theophylline 20 uM
Entry rule: numbers only, all in nM.

Check out these entries, answers already filled in.
{"ordered_residues": "GCUGCUUAGGGAAGGAGCGCUGCGGAAUUGUGGAGGACAUGAGGAUCACCCAUGUUCCUGCGGCAGGUAGGUCGCUUUGGGCAGC [#17 Exclusion - Arginine B]", "apparent KD of MS2 coat protein [nM]": 48.1}
{"ordered_residues": "CGAAAGCUCCUUAUGUGCUUUCGACUGGAAGGAGCGAGCGAAAGCUCAGGUAGGUCGCCAGAAACAUGAGGAUCACCCAUGUAAU [(A)''-(M)'-(A)'(Arg1)-(Arg2)-(M1)-(M2)_Design9]", "apparent KD of MS2 coat protein [nM]": 25.6}
{"ordered_residues": "ACGUAGAAGUCGGCCGCCACUGAUUUCAUGUUCAACAUGAGGAUCACCCAUGUACCUUAUGUUAACAGGACCGGGACGUAUACGA [JR_SSTryptoB_Sub001]", "apparent KD of MS2 coat protein [nM]": 303}
{"ordered_residues": "CCCAACAGUGAUGCCGGUGUUGGUGGUGAUACCAGCGUCUUAUGGCGCCCUUGGCAGCACCAACAUGAGGAUCACCCAUGUGAAA [Beenerveor]", "apparent KD of MS2 coat protein [nM]": 113}
{"ordered_residues": "GUCGUGGUCGGAAGGAGCGACAUGAGGAUCACCCAUGUCUCCCGUUAUGGGAGUUCCUUAGGUCAGGUAGGUCGCCGACUGCGGC [#1 Exclusion - Arginine B Attempt #23 (Inspired by Omei)]", "apparent KD of MS2 coat protein [nM]": 170}

### Prompt Could you please provide reported apparent KD of MS2 coat protein for AUGUCAUUGGUGUAGCUGUGAAGUGGCGAUACCAGCGUGGAAACACGCCCUUGGCAGCGCCAAAACAUGAGGAUCACCCAUGUUA [#23 Exclusion-TheophyllineA] ? Thanks!
### Response 56.3

### Prompt Could you please provide reported apparent KD of MS2 coat protein for GGAGCUACGUCGGCCGCCACUAGCGGAUAUUACGUGUACAUGAGGAUCACCCAUGUAAUACGGUUUAGGACCGGGACGUAGCUCC [Lizard] ? Thanks!
### Response 22.4

### Prompt Could you please provide reported apparent KD of MS2 coat protein for AAUCGUAAGGCGGCCGCCACUACACAUGAGGAUCACCCAUGUCUCGCAGGCUUGCGUUGGGUUAGUAGGACCGGGCCAGUAAUAA [Exclusion - Tryptophan B (Freestyle 15)] ? Thanks!
### Response 43.2

### Prompt Could you please provide reported apparent KD of MS2 coat protein for UACAUGAGGAUCACCCAUGUAUUGCCGGUACGAGGACCGGUACGGCCGCCACUCGGGACAUGAGGAUCACCCAUGUGCUGCUAUU [Same State Trypophan A GF 23] ? Thanks!
### Response 49.8

### Prompt Could you please provide reported apparent KD of MS2 coat protein for GGUUACUCUACGGCCGCCACUGUAAUGUAAAGAUACCUGUACAUGACAUGAGGAUCACCCAUGUACAGGACCGGGUAGUGUAACC [Tryptophan B 17] ? Thanks!
### Response 312

### Prompt Could you please provide reported apparent KD of MS2 coat protein for CCUAUGCAGUCGGCCGCCACUGAACAUGAGGAUCACCCAUGUAAUUAAAAUUAAGAUCCUGAAAUCAGGACCGGGACUGUAUAGG [Ex Tryptophan B 4] ? Thanks!
### Response 280
